- Target or system: Cannabinoid receptor 1 (Homo sapiens, UniProt P21554)
- Sequence (P21554 whole entry): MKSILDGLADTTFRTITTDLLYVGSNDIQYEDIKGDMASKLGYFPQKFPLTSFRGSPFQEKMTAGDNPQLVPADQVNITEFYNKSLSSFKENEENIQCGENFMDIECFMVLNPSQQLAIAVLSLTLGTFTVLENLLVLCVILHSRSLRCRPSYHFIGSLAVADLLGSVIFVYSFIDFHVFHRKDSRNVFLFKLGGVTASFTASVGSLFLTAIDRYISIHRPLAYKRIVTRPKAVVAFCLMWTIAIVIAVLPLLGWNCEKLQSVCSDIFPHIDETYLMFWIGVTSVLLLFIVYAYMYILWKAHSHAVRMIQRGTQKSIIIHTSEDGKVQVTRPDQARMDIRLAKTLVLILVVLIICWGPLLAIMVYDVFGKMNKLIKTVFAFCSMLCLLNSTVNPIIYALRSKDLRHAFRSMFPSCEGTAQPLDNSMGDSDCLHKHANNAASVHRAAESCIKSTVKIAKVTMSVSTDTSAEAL
- Test method notes: Displacement of [3H]-CP55940 from human CB1 receptor expressed in CHO cells at 1 uM incubated for 90 mins by liquid scintillation spectrophotometry relative to control
- Assay type: cell-based
Measurement kind: Activity (%)
Write the number in % without appending the unit.

INSERT INTO assay_data (query_smiles, quantitative_result) VALUES
  ('C=CCCCn1c(C)c(C(=O)c2ccc3c(c2)CC(C)(C)C3)c2ccccc21', 38.6),
  ('CCOC(=O)Cn1cc(C(=O)c2ccc3c(c2)CC(C)(C)C3)c2ccccc21', 19.4),
  ('C=CCn1cc(C(=O)c2ccc3c(c2)CC(C)(C)C3)c2ccccc21', 16),
  ('CC1(C)Cc2ccc(C(=O)c3c[nH]c4ccccc34)cc2C1', 9.4),
  ('C#CCCCn1c(C)c(C(=O)c2ccc3c(c2)CC(C)(C)C3)c2ccccc21', 41.9);

Asked: Provide only the value of recorded Activity for "Cc1c(C(=O)c2ccc3c(c2)CC(C)(C)C3)c2ccccc2n1Cc1ccc(F)cc1"
Given back: 38.4

Asked: Provide only the value of recorded Activity for "CCCn1cc(C(=O)c2ccc3c(c2)CC(C)(C)C3)c2ccccc21"
Given back: 47.4

* * *

- Target or system: Cannabinoid receptor 1 (Homo sapiens, UniProt P21554)
Measurement kind: log10(Ki) (log10 of the value in nM)
Would you kindly interpret these values as log10 of Ki expressed in nM?

INSERT INTO measurements (query_smiles, quantitative_result) VALUES
  ('C#CCCCn1c(C)c(C(=O)c2ccc3c(c2)CC(C)(C)C3)c2ccccc21', 3.28),
  ('CCCCCn1cc(C(=O)c2ccc3c(c2)CC(C)(C)C3)c2ccccc21', 1.59),
  ('C=CCCCn1cc(C(=O)c2ccc3c(c2)CC(C)(C)C3)c2ccccc21', 2.18),
  ('CCCCCn1cc(C(=O)c2cccc3ccccc23)c2ccccc21', 0.95),
  ('CCCn1cc(C(=O)c2ccc3c(c2)CC(C)(C)C3)c2ccccc21', 3.41),
  ('C#CCCCn1cc(C(=O)c2ccc3c(c2)CC(C)(C)C3)c2ccccc21', 2.51);

Now turn to the next molecule.
Asked: Provide only the value of recorded log10(Ki) for "CCCCCn1cc(C(=O)c2cccc3c2CC(C)(C)C3)c2ccccc21"
Given back: 0.16

* * *

- Target or system: UniProt P34972
- Test method notes: Displacement of [3H]-CP55940 from human CB2 receptor expressed in CHO cells at 1 uM incubated for 90 mins by liquid scintillation spectrophotometry relative to control
- Format: cell-based
Measurement kind: Activity (%)
Write the number in % without appending the unit.

Asked: Provide only the value of recorded Activity for "CCOC(=O)Cn1cc(C(=O)c2ccc3c(c2)CC(C)(C)C3)c2ccccc21"
Given back: 18

* * *

- Target or system: Cannabinoid receptor 2 (Homo sapiens, UniProt P34972)
- Sequence (P34972 whole entry): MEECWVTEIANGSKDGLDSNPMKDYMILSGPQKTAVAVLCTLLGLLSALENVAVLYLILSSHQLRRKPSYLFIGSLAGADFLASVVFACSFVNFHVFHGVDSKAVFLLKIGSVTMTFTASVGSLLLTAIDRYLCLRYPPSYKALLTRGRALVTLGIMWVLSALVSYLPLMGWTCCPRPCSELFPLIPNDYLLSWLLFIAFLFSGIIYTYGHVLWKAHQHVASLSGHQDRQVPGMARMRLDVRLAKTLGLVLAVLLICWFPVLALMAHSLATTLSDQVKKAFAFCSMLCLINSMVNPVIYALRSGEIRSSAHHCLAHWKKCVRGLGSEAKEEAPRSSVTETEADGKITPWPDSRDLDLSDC
- Test method notes: Displacement of [3H]-CP55940 from human CB2 receptor expressed in CHO cells incubated for 90 mins by liquid scintillation spectrophotometry relative to control
- Assay type: cell-based
Below is a list of entries, each paired with its recorded pKi value.
# reply with the number alone; pKi is -log10 of concentration in mol/L

Study these solved cases before continuing.
INSERT INTO assay_data (query_smiles, measurement_kind, quantitative_result) VALUES
  ('CCCCCn1cc(C(=O)c2cccc3ccccc23)c2ccccc21', 'pKi', 8.53),
  ('CCCCCn1cc(C(=O)c2cccc3c2CC(C)(C)C3)c2ccccc21', 'pKi', 8.87),
  ('C=CCCCn1cc(C(=O)c2ccc3c(c2)CC(C)(C)C3)c2ccccc21', 'pKi', 7.81),
  ('C#CCCCn1cc(C(=O)c2ccc3c(c2)CC(C)(C)C3)c2ccccc21', 'pKi', 7.62),
  ('C#CCCCn1c(C)c(C(=O)c2ccc3c(c2)CC(C)(C)C3)c2ccccc21', 'pKi', 7.20);

Asked: Look up and report pKi, with Cannabinoid receptor 2 (Homo sapiens, UniProt P34972) as system, for "CCCn1cc(C(=O)c2ccc3c(c2)CC(C)(C)C3)c2ccccc21"
Given back: 6.89

Asked: Look up and report pKi, with Cannabinoid receptor 2 (Homo sapiens, UniProt P34972) as system, for "CCCCCn1cc(C(=O)c2ccc3c(c2)CC(C)(C)C3)c2ccccc21"
Given back: 8.31
